Examples of compounds with documented growth inhibition follow.
experiment description: NCI Yeast Anticancer Drug Screen. Data for the bub3 strain (AID 167)
conditions used: S. cerevisiae bub3 mutant strain, at 50.0 µM, stronger effect = higher value
The panel holds about 79,000 compounds, 15% with a hit somewhere; the sample as a whole holds those more often.
The reply should contain only the number, in %.

Example entries begin here.
>>> value_measured("O=C1/C(=C/c2ccc([N+](=O)[O-])cc2)Sc2scc(-c3cccc([N+](=O)[O-])c3)[n+]21")
87
>>> value_measured("CCCCCCCCCCCC(O)CN1CCOCC1 (stereo not given)")
98.8
>>> value_measured("COc1ccc(CC/C(=N/O)c2ccccc2)cc1")
98

Query :: Could you tell me which growth inhibition is on file for `N#Cc1c(-c2ccc(Cl)c(Cl)c2)c(-c2ccc(Cl)c(Cl)c2)nn(CC(=O)O)c1=O` ?
Result :: 34.2

Query :: Could you tell me which growth inhibition is on file for `COc1cc(NCCCCCNC2CCCCC2)c2ncccc2c1` ?
Result :: 83.6

Query :: Could you tell me which growth inhibition is on file for `N#Cc1c(-c2ccc([N+](=O)[O-])cc2)c(C#N)c(=O)n(NS(=O)(=O)c2ccccc2)c1S` ?
Result :: 61.6

Query :: Could you tell me which growth inhibition is on file for CN(C)[C@H]1CC[C@H]2[C@@H]3CCC4C[C@@H](NC(=O)NC(Cc5ccccc5)c5nccs5)CC[C@]4(C)[C@H]3CC[C@]12C (stereo not given in full) ?
Result :: 65.9

Query :: Could you tell me which growth inhibition is on file for `c1cnc2ccc3c4cccnc4ccc3c2c1` ?
Result :: 75.8

Query :: Could you tell me which growth inhibition is on file for `CCCCNC(=S)N/N=C/c1cccc(C)n1` ?
Result :: 42.5

Query :: Could you tell me which growth inhibition is on file for `Cc1csc2[n+]1C(=O)/C(=C\c1ccc([N+](=O)[O-])cc1)S2` ?
Result :: 46.9

====

Examples of compounds with documented growth inhibition follow.
experiment description: NCI Yeast Anticancer Drug Screen. Data for the sgs1 mgt1 strain (AID 161);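 also: 0% = growth of cultures given vehicle only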
conditions used: S. cerevisiae sgs1 mgt1 strain, at 50.0 µM, stronger effect = higher value
Compounds without any hit were thinned out: in the full panel of roughly 79,000, 15% have a hit.
The reply should contain only the number, in %.

Example entries begin here.
>>> value_measured("CCOC(CCCl)OCC")
-2.9
>>> value_measured("O=S(=O)(O)c1ccc(N=Nc2ccc3c(S(=O)(=O)O)cccc3c2O)c2ccccc12")
-37.2
>>> value_measured("O=C(NC1CCN(Cc2ccccc2)CC1)c1ccc(I)cc1")
74.6
>>> value_measured("CC(=O)c1c(O)ccc2nc3ccccc3nc12")
82.6
>>> value_measured("Cc1c2ncccc2cc2oc3ccccc3c(=O)c12")
24.4

Shift focus to the following entry.
Query :: Could you tell me which growth inhibition is on file for O=C1OC(OCC#CCOC2OC(=O)C(Cl)=C2Cl)C(Cl)=C1Cl (stereo unspecified) ?
Result :: 99.3

====

experiment description: NCI Yeast Anticancer Drug Screen. Data for the rad50 strain (AID 155);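 also: 0% = growth of vehicle-only cultures of the same strain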
conditions used: S. cerevisiae rad50 strain growth inhibition; at 50.0 µM; stronger effect = higher value
Compounds without any hit were thinned out: in the full panel of roughly 79,000, 15% have a hit.
measure: growth inhibition (%)
The reply should contain only the number, in %.

Example entries begin here.
>>> value_measured("CN(C)C(=S)S(=O)(=O)CCCCS(=O)(=O)C(=S)N(C)C")
86.3
>>> value_measured("COc1cc(Nc2ccc(O)cc2)c2ncccc2c1")
94.9
>>> value_measured("CCN(CC)CCOC(=O)c1ccc(N=Nc2ccc(O)c3ccccc23)cc1")
98.8

Query :: Could you tell me which growth inhibition is on file for `O=C(N/C(=C\c1cccc([N+](=O)[O-])c1)c1nc2ccccc2s1)c1ccccc1` ?
Result :: 98.5

Query :: Could you tell me which growth inhibition is on file for Nc1ncnc2c1ncn2C1OCC(OCc2ccccc2)C(OCc2ccccc2)C1OCc1ccccc1 (stereo not given) ?
Result :: 98.3

Query :: Could you tell me which growth inhibition is on file for `c1ccc2c(c1)ccc1c2ccc2sc3ccccc3[n+]21` ?
Result :: 92.3

Query :: Could you tell me which growth inhibition is on file for `O=C(C[P+](c1ccccc1)(c1ccccc1)c1ccccc1)c1ccc(Br)cc1` ?
Result :: 98.8

Query :: Could you tell me which growth inhibition is on file for `COc1ccc2nc3cc(Cl)ccc3c(NCCCCCCNc3c4ccc(Cl)cc4nc4ccc(OC)nc34)c2n1` ?
Result :: 96.9

Query :: Could you tell me which growth inhibition is on file for `CCOC(=O)c1cc(Cl)nc2ccc(OC)cc12` ?
Result :: 0.05

Query :: Could you tell me which growth inhibition is on file for `O=C(Oc1c([N+](=O)[O-])cc(-c2ccc([N+](=O)[O-])cc2)cc1[N+](=O)[O-])c1ccccc1` ?
Result :: 74.7
